study.target: T1, c-erbB-2 ECD with a Ser-Gly-His6 C-terminal fusion (UniProt P04626 23-652)
T1 construct: extracellular domain; Expressed from CHO cells, IMAC purified; coupled to a CM5 chip, coated on plates, or biotinylated with NHS-LC-biotin; also called c-erbB-2 extracellular domain; biotinylated c-erbB-2 ECD
assay.remarks: SPR BIAcore
Quick reference for Kd among some binders
measured.parameter: Kd (nM)

INSERT INTO results (binder, unit_descriptor, value) VALUES
  ('C6ML3-29 (scFv) scFv: QVQLLQSGAELKKPGESLKISCKGSGYSFTSYWIAWVRQMPGKGLEYMGLIYPGDSDTKYSPSFQGQVTISVDKSVSTAYLQWSSLKPSDSAVYFCARHDVGYCSSSNCAKWPEYFQHWGQGTLVTVSSGGGGSGGGGSGGGGSQSVLTQPPSVSAAPGQKVTISCSGSSSNIGNNYVSWYQQLPGTAPKLLIYGHTNRPAGVPDRFSGSKSGTSASLAISGFRSEDEADYYCAAWDGTLWGWVFGGGTKLTVLG', 'nM', 2.7),
  ('C6ML3-23 (scFv) scFv: QVQLLQSGAELKKPGESLKISCKGSGYSFTSYWIAWVRQMPGKGLEYMGLIYPGDSDTKYSPSFQGQVTISVDKSVSTAYLQWSSLKPSDSAVYFCARHDVGYCSSSNCAKWPEYFQHWGQGTLVTVSSGGGGSGGGGSGGGGSQSVLTQPPSVSAAPGQKVTISCSGSSSNIGNNYVSWYQQLPGTAPKLLIYGHTNRPAGVPDRFSGSKSGTSASLAISGFRSEDEADYYCASWDHSLWGWVFGGGTKLTVLG', 'nM', 1.5),
  ('C6ML3-19 (scFv) scFv: QVQLLQSGAELKKPGESLKISCKGSGYSFTSYWIAWVRQMPGKGLEYMGLIYPGDSDTKYSPSFQGQVTISVDKSVSTAYLQWSSLKPSDSAVYFCARHDVGYCSSSNCAKWPEYFQHWGQGTLVTVSSGGGGSGGGGSGGGGSQSVLTQPPSVSAAPGQKVTISCSGSSSNIGNNYVSWYQQLPGTAPKLLIYGHTNRPAGVPDRFSGSKSGTSASLAISGFRSEDEADYYCASWDRPLWGWVFGGGTKLTVLG', 'nM', 1.5),
  ('C6ML3-13 (scFv) scFv: QVQLLQSGAELKKPGESLKISCKGSGYSFTSYWIAWVRQMPGKGLEYMGLIYPGDSDTKYSPSFQGQVTISVDKSVSTAYLQWSSLKPSDSAVYFCARHDVGYCSSSNCAKWPEYFQHWGQGTLVTVSSGGGGSGGGGSGGGGSQSVLTQPPSVSAAPGQKVTISCSGSSSNIGNNYVSWYQQLPGTAPKLLIYGHTNRPAGVPDRFSGSKSGTSASLAISGFRSEDEADYYCAAWDATLWGWVFGGGTKLTVLG', 'nM', 2.4);
